molecular target: human AspH (His6-AspH315–758) (Homo sapiens, UniProt Q12797); construct: N-Terminally His6-tagged human AspH315–758 (His6-AspH315–758) was produced in Escherichia coli BL21 (DE3) cells; made in house; host or cells: Escherichia coli BL21 (DE3), pET-28a(+) vector; assay: SPE-MS AspH inhibition assay (hFX-CP101-119 substrate hydroxylation); assay type: biochemical; conditions: AspH-inhibitor screening, 384-well Plate 1, substrate conversion
Where a name gives a salt, the structure may show the parent alone.
endpoint label: Plate 1 (% conversion) (%)

O=C(c1ccc(OCCN2CCCCC2)cc1)c1c(-c2ccc(O)cc2)sc2cc(O)ccc12 [Raloxifene] = 41.74
CC1(C)NC(=O)N(c2ccc([N+](=O)[O-])c(C(F)(F)F)c2)C1=O [Nilutamide] = 47.88
COc1cc2ncnc(Nc3ccc(F)c(Cl)c3)c2cc1OCCCN1CCOCC1 [Gefitinib] = 66.99
O=c1[nH]cc(F)c(=O)[nH]1 [Fluorouracil] = 46.30
O=P1(NCCCl)OCCCN1CCCl (stereo not drawn) [Ifosfamide] = 46.12
CCc1cncnc1N1CCN(Cc2nc3ccc(C(F)(F)F)cc3[nH]2)CC1 [PF-04708671] = 52.26
CNC(=O)c1cccc(-c2ccc3c(N4CCOC[C@@H]4C)nc(N4CCOC[C@@H]4C)nc3n2)c1 [AZD2014] = 46.18
Nc1nc(F)nc2c1ncn2[C@@H]1O[C@H](COP(=O)(O)O)[C@@H](O)[C@@H]1O [Fludarabine phosphate] = 47.39
O=C1NC(=O)[C@@H](c2cn3c4c(cccc24)CCC3)[C@@H]1c1c[nH]c2ccccc12 [ARQ 197_Tivantinib] = 52.96
CCc1cnn2c(NCc3ccc[n+]([O-])c3)cc(N3CCCC[C@H]3CCO)nc12 [Dinaciclib (SCH727965)] = 49.11
Nc1ncnc2c1c(COc1cccc(Cl)c1)nn2C1CCOCC1 [PF4800567 hydrochloride] = 50.14
O=c1[nH]c(=O)n([C@H]2C[C@H](O)[C@@H](CO)O2)cc1C(F)(F)F [Trifluridine] = 48.89

====

biological target: human AspH (His6-AspH315–758) (Homo sapiens, UniProt Q12797); construct: N-Terminally His6-tagged human AspH315–758 (His6-AspH315–758) was produced in Escherichia coli BL21 (DE3) cells; made in house; host or cells: Escherichia coli BL21 (DE3), pET-28a(+) vector; assay: SPE-MS AspH inhibition assay (hFX-CP101-119 substrate hydroxylation); assay type: biochemical; details: AspH-inhibitor screening, Plate 1-duplicate, substrate conversion
endpoint label: Plate 1-duplicate (% conversion) (%)

Nc1nccc(-c2c(-c3ccc(F)cc3)ncn2C2CCCCC2)n1 = 37.22
CS(=O)(=O)OCCCCOS(C)(=O)=O = 47.73

P. CCc1cnn2c(NCc3ccc[n+]([O-])c3)cc(N3CCCC[C@H]3CCO)nc12 [Dinaciclib (SCH727965)]
Q. Cc1cnc(NC(=O)Nc2cc(Br)c(C)cc2OC[C@@H]2CNCCO2)cn1
R. Cc1ccc(F)c(NC(=O)Nc2ccc(-c3cccc4[nH]nc(N)c34)cc2)c1
Order the 3 compounds from highest to lowest Plate 1-duplicate (% conversion). Give me the labels in the order the question wants.
Q, P, R

====

Molecular target: human AspH (His6-AspH315–758) (Homo sapiens, UniProt Q12797)
Construct: N-Terminally His6-tagged human AspH315–758 (His6-AspH315–758) was produced in Escherichia coli BL21 (DE3) cells; made in house; host or cells: Escherichia coli BL21 (DE3), pET-28a(+) vector
Sequence (Q12797 315-758): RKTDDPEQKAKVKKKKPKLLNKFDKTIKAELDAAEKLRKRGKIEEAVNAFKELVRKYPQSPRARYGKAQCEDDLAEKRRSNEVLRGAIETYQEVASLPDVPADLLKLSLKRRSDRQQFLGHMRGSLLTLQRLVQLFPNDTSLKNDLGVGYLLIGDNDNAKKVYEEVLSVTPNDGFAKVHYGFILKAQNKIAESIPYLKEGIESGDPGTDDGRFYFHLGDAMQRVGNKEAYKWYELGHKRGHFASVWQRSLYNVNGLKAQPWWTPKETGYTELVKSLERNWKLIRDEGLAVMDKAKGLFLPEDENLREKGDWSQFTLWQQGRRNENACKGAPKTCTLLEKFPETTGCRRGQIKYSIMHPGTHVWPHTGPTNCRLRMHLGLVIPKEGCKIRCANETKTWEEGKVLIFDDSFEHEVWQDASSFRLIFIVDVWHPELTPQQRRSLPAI
Assay: SPE-MS AspH inhibition assay (hFX-CP101-119 substrate hydroxylation)
Assay type: biochemical
Settings: AspH-inhibitor screening, 384-well Plate 1
endpoint label: Plate 1 (% inhibition) (%)

a. CO[C@@]12[C@H](COC(N)=O)C3=C(C(=O)C(C)=C(N)C3=O)N1C[C@@H]1N[C@@H]12
b. O=C(O)c1ccc(-c2c[nH]c3ncc(-c4ccccc4)cc23)cc1C1CCCC1
c. C=CC[C@@H]1/C=C(\C)C[C@H](C)C[C@H](OC)[C@H]2O[C@@](O)(C(=O)C(=O)N3CCCC[C@H]3C(=O)O[C@H](/C(C)=C/[C@@H]3CC[C@@H](O)[C@H](OC)C3)[C@H](C)[C@@H](O)CC1=O)[C@H](C)C[C@@H]2OC.O
d. C[C@H]1C[C@@H]2[C@H]([C@@H](O)C[C@@]3(C)[C@H]2CC[C@]3(O)C(=O)CO)[C@@]2(C)C=CC(=O)C=C12
Please list these compounds in decreasing order of Plate 1 (% inhibition). Lab note: final answer is the ordered label list.
b, d, a, c

====

target: human AspH (His6-AspH315–758) (Homo sapiens, UniProt Q12797); construct: N-Terminally His6-tagged human AspH315–758 (His6-AspH315–758) was produced in Escherichia coli BL21 (DE3) cells; made in house; host or cells: Escherichia coli BL21 (DE3), pET-28a(+) vector; assay: SPE-MS AspH inhibition assay (hFX-CP101-119 substrate hydroxylation); format: biochemical; conditions: AspH-inhibitor screening, Plate 1-duplicate, substrate conversion
Counter-ions that a name gives are not always drawn.
endpoint label: Plate 1-duplicate (% conversion) (%)

Use these answered entries as a reference point.
FC(F)c1nc2ccccc2n1-c1nc(N2CCOCC2)nc(N2CCOCC2)n1 = 51.20
C=CCn1c(=O)c2cnc(Nc3ccc(N4CCN(C)CC4)cc3)nc2n1-c1cccc(C(C)(C)O)n1 = 51.12
C/C(=C\c1csc(C)n1)[C@@H]1C[C@@H]2O[C@]2(C)CCC[C@H](C)[C@H](O)[C@@H](C)C(=O)C(C)(C)[C@@H](O)CC(=O)O1 = 55.68
Nc1ccccc1NC(=O)c1ccc(CNC(=O)OCc2cccnc2)cc1 = 54.07

1. CC(C)C[C@@H](C(=O)N[C@H](C(=O)OC1CCCC1)c1ccccc1)[C@H](O)C(=O)NO
2. CCC1=C[C@@H]2CN(C1)Cc1c([nH]c3ccccc13)[C@@](C(=O)OC)(c1cc3c(cc1OC)N(C)[C@H]1[C@@](O)(C(=O)OC)[C@H](OC(C)=O)[C@]4(CC)C=CCN5CC[C@]31[C@@H]54)C2 [Vinorelbine tartrate]
Higher Plate 1-duplicate (% conversion) between 1 and 2 ? Respond with the label that goes with your answer.
1

====

Biological target: human AspH (His6-AspH315–758) (Homo sapiens, UniProt Q12797)
Construct: N-Terminally His6-tagged human AspH315–758 (His6-AspH315–758) was produced in Escherichia coli BL21 (DE3) cells; made in house; host or cells: Escherichia coli BL21 (DE3), pET-28a(+) vector
Sequence (Q12797 315-758): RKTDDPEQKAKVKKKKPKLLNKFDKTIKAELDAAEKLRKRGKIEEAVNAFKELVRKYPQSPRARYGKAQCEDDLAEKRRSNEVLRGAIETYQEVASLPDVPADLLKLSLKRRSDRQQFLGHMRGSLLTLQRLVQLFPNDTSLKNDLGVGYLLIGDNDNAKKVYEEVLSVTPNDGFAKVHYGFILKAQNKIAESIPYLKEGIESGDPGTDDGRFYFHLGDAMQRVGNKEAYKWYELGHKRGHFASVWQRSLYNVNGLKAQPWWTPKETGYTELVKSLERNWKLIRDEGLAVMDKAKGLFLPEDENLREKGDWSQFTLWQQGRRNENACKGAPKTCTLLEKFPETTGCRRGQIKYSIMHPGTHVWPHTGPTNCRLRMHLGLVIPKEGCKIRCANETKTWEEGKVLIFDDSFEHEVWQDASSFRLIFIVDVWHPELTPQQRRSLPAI
Assay: SPE-MS AspH inhibition assay (hFX-CP101-119 substrate hydroxylation)
Type: biochemical
Settings: AspH-inhibitor screening, 384-well Plate 1
endpoint label: Plate 1 (% inhibition) (%)

The examples below pair each entry with its known result.
CN(C)CCN1C(=O)c2cccc3cc(N)cc(c23)C1=O [Amonafide] = 4.40
CC[C@@H]1C(=O)OC[C@@H]1Cc1cncn1C = 3.20
CNC(=O)c1ccc(N2C(=S)N(c3ccc(C#N)c(C(F)(F)F)c3)C(=O)C2(C)C)cc1F [Enzalutamide] = -2.61
Oc1ccc2c(c1)CC[C@H](c1ccccc1)[C@@H]2c1ccc(OCCN2CCCC2)cc1 = 4.47
CNC(=O)c1ccc(N2C(=S)N(c3ccc(C#N)c(C(F)(F)F)c3)C(=O)C23CCC3)cc1F = -1.12

A. Cn1c(Nc2ccc(C(F)(F)F)cc2)nc2cc(Oc3ccnc(-c4ncc(C(F)(F)F)[nH]4)c3)ccc21
B. C[C@@H](Oc1cc(-c2cnn(C3CCNCC3)c2)cnc1N)c1c(Cl)ccc(F)c1Cl [Crizotinib]
C. CC(C)n1nc(-c2ccc3oc(N)nc3c2)c2c(N)ncnc21
Given 3 compounds, produce a descending ranking by Plate 1 (% inhibition). I'd appreciate it if you listed the labels in the requested order.
A, C, B
(A: 38.69%, C: 4.97%, B: -6.35%)
